Reference source for all entries: paper PMC4238911

Assay: Plasma pharmacokinetics of lestaurtinib
Conditions: human, po, 62.5 mg/m2
METRIC NAME: AUC(0-t) (ng·h/mL)

> print(dat)
                            chemical.string  recorded.value
1  C[C@]12O[C@H](C[C@]1(O)CO)n1c3ccccc3c3c4c(c5c6ccccc6n2c5c31)CNC4=O           26600

* * *

Assay: Plasma pharmacokinetics of lestaurtinib
Settings: human, po, 45 mg/m2
METRIC NAME: Tmax

> print(dat)
                                   compound  metric.name  recorded.value
1  C[C@]12O[C@H](C[C@]1(O)CO)n1c3ccccc3c3c4c(c5c6ccccc6n2c5c31)CNC4=O [lestaurtinib, Lestaurtinib]         Tmax             1 h
